STUDY_SYSTEM: GlunN1/GluN2A glutamate receptors (Homo sapiens, UniProt Q05586+Q12879)
Construct: expressed in transfected cells
Sequence (Q12879 23-1464, other chains not shown): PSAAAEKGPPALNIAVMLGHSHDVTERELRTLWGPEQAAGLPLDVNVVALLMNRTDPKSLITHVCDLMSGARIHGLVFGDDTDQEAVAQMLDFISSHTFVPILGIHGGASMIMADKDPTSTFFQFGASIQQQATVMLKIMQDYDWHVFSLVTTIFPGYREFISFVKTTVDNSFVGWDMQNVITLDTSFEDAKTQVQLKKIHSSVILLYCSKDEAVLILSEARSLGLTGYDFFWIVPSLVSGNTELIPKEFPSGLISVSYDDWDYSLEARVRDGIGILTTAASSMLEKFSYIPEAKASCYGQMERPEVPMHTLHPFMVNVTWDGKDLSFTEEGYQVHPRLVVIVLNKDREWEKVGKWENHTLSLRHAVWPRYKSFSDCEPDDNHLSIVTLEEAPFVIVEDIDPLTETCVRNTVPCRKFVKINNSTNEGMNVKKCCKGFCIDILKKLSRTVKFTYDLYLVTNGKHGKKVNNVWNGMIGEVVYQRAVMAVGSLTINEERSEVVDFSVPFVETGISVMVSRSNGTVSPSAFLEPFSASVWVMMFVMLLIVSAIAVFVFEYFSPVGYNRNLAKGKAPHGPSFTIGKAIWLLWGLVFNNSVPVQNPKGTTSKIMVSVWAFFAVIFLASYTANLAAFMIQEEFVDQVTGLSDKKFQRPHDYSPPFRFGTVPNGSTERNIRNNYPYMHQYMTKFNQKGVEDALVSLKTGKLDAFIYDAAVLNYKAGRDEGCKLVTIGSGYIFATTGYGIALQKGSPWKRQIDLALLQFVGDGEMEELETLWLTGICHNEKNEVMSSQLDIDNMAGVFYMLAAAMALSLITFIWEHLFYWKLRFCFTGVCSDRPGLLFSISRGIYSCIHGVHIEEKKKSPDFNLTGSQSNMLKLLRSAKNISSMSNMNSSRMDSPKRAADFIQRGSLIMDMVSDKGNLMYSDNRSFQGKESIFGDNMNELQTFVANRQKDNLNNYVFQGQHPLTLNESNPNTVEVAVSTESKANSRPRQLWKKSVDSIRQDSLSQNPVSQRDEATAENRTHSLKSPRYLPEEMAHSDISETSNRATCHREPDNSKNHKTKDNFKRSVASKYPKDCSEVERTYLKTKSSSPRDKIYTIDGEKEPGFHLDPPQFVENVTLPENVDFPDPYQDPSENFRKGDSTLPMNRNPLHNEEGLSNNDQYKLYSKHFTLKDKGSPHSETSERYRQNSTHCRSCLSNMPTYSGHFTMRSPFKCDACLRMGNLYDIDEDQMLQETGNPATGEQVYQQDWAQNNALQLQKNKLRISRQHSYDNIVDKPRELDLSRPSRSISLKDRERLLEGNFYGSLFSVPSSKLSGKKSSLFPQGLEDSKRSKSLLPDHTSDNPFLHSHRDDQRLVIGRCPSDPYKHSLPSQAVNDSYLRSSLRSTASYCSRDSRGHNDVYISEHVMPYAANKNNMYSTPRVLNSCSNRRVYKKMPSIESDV
ASSAY_REMARKS: Whole-cell patch clamp of mammalian cells (Ionworks Barracuda), positive allosteric modulation (PAM) of NMDA receptor, 2A
Format: cell-based
CONDITION_SET: HEK293 cells; % activation of current elicited with EC20 L-glutamate and 30 µM glycine
PROPERTY_NAME: Avg Emax 2A (%)
Give bare numbers, in %.

Some compounds with recorded Avg Emax 2A (%):
CC[C@]1(O)CC[C@H]2C(=CC[C@@H]3[C@@H]2CC[C@]2(C)[C@@H]([C@H](C)CCCC4(O)CCC(C)(C)CC4)CC[C@@H]32)C1 | 56.7
C[C@H](CCC(O)(c1ccccc1)C(F)(F)F)[C@H]1CC[C@H]2[C@@H]3CC=C4C[C@@](C)(O)CC[C@]4(C)[C@H]3CC[C@]12C (stereo partly drawn) | 204.3

Problem: If you can, please state the reported Avg Emax 2A (%) value of `C[C@H](CC[C@](C)(O)C(F)(F)F)[C@H]1CC[C@H]2[C@@H]3CC=C4C[C@@](C)(O)CC[C@@H]4[C@H]3CC[C@]12C` .
Result: 66.5

---

STUDY_SYSTEM: GluN2B glutamate receptors (Homo sapiens, UniProt Q05586+Q13224)
Sequence (Q13224 27-1484, other chains not shown): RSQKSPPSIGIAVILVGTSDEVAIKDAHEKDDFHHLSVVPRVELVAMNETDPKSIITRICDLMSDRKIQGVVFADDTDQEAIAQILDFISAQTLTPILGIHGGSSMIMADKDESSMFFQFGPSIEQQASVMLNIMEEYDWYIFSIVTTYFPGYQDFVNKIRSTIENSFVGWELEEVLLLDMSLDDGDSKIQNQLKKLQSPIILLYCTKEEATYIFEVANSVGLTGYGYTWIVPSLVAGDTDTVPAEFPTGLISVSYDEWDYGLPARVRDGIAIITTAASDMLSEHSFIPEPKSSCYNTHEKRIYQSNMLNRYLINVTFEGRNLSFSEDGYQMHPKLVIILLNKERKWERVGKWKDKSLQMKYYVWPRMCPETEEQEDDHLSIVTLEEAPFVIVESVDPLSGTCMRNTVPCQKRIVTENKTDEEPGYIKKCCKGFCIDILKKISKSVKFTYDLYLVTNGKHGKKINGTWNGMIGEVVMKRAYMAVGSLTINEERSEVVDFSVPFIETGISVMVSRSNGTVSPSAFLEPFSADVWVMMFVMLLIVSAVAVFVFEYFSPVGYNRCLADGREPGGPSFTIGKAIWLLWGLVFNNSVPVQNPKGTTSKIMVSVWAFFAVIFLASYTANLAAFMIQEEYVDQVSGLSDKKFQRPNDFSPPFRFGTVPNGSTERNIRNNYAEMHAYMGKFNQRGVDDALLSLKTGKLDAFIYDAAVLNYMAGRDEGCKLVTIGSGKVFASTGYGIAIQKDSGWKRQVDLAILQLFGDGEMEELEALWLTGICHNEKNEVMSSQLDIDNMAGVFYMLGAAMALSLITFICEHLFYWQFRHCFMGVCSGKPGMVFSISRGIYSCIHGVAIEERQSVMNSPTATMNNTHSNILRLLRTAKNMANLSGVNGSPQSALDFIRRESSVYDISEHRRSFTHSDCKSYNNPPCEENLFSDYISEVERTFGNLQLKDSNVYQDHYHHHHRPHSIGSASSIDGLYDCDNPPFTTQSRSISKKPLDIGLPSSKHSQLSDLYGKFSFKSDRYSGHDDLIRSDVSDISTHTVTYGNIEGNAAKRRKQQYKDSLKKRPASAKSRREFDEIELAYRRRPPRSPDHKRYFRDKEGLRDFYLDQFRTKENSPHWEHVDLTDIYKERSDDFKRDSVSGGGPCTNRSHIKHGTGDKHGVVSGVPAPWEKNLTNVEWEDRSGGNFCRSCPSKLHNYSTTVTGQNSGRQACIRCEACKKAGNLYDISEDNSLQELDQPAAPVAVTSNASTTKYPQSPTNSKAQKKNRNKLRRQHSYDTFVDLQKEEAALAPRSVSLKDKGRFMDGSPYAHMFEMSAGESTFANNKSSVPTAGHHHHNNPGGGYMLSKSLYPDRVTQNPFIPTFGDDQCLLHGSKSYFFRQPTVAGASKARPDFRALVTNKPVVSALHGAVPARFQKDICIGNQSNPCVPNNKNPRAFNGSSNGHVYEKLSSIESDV
ASSAY_REMARKS: Whole-cell patch clamp of mammalian cells (Ionworks Barracuda), positive allosteric modulation (PAM) of NMDA receptor, 2B
CONDITION_SET: co-application with EC20 L-glutamate and 30 µM glycine; 8-point concentration-response
// NB: equality with 400 nM counts as N; only EC50 strictly below is Y

Solved entries (count: 5):
CC(C)[C@H](O)CC[C@@H](C)[C@H]1CC[C@H]2[C@@H]3CC[C@H]4C[C@@](C)(O)CC[C@@H]4[C@H]3CC[C@]12C | Y
C[C@H](CCC[C@@H](O)C(C)(C)C)[C@H]1CC[C@H]2[C@@H]3CC[C@H]4C[C@](O)(C(F)(F)F)CC[C@]4(C)[C@H]3CC[C@]12C | N
CC(C)[C@@H](O)CC[C@@H](C)[C@H]1CC[C@H]2[C@@H]3CC[C@H]4C[C@@](C)(O)CC[C@@H]4[C@H]3CC[C@]12C | N
CCC(O)CCC[C@@H](C)[C@H]1CC[C@H]2[C@@H]3CC=C4C[C@](O)(CC)CC[C@@H]4[C@H]3CC[C@]12C (stereo partly drawn) | Y
C[C@H](CCC1(O)CCC(C)(C)CC1)[C@H]1CC[C@H]2[C@@H]3CC[C@@H]4C[C@](O)(C(F)(F)F)CC[C@]4(C)[C@H]3C(=O)C[C@]12C | N

Attention now shifts to the item below.
Problem: Find out if reported EC50 for `C[C@H](CCC[C@@H](C)O)[C@H]1CC[C@H]2[C@@H]3CC[C@H]4C[C@](O)(C(F)(F)F)CC[C@]4(C)[C@H]3CC[C@]12C` is less than 400 nM
Result: N

---

STUDY_SYSTEM: GluN2B glutamate receptors (Homo sapiens, UniProt Q05586+Q13224)
Construct: expressed in transfected cells; host or cells: mammalian cells (line not described for GluN2B)
ASSAY_REMARKS: Whole-cell patch clamp of mammalian cells (Ionworks Barracuda), positive allosteric modulation (PAM) of NMDA receptor, 2B
Assay type: cell-based
CONDITION_SET: % activation of current elicited with EC20 L-glutamate and 30 µM glycine
Protocol: The measurements were perfomed using Ion Works Barracuda platform following this procedure: • Electrophysiological Procedures: • a) Intracellular solution (mM): 50 mM CsCl, 90 mM CsF, 2 mM MgCl2, 5 mM EGTA, 10 mM HEPES. […] The maximal amplitude of the evoked currents are measured and defined as Peak Current Amplitude (PCA).
Answer f if Emax is under 300%, and t if it is 300% or more.

Solved entries (count: 4):
CC[C@]1(O)CC[C@@]2(C)C(=CC[C@H]3[C@@H]4CC[C@H]([C@H](C)CC[C@@H](O)c5ccccc5F)[C@@]4(C)CC[C@@H]32)C1 | f
C[C@H](CC[C@H](O)C(C)(C)C)[C@H]1CC[C@H]2[C@@H]3CC=C4C[C@](O)(C(F)(F)F)CC[C@]4(C)[C@H]3CC[C@]12C | f
C[C@H](CC[C@]1(O)CCOC1)[C@H]1CC[C@H]2[C@@H]3CC=C4C[C@](O)(C(F)(F)F)CC[C@]4(C)[C@H]3CC[C@]12C | t
C[C@H](CC[C@@H](O)C(F)(F)F)[C@H]1CC[C@H]2[C@@H]3CC=C4C[C@](O)(C(F)(F)F)CC[C@]4(C)[C@H]3CC[C@]12C | t

Attention now shifts to the item below.
Problem: Evaluate CCC1(O)CCC2(C)C(=CCC3C2CCC2(C)C(C(C)CCC(O)c4ccccc4F)CCC32)C1 (single isomer, unassigned) : Emax at minimum 300%?
Result: f
